Target sequence: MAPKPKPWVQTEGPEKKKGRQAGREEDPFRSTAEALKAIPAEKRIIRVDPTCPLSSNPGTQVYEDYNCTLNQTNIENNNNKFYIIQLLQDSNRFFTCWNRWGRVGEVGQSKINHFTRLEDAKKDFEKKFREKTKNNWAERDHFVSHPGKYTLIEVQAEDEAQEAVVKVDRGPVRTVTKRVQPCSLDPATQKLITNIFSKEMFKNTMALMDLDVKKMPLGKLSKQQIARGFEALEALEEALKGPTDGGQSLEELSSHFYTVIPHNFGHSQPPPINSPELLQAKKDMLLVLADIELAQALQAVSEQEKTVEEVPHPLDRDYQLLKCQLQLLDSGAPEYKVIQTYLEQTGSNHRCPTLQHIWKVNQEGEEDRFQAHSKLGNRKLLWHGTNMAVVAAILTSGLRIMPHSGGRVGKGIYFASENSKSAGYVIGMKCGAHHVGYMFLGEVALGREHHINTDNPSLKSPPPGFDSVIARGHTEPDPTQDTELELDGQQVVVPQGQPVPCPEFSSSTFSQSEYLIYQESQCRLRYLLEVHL
pIC50: −log10 of the molar value.
QUANTITY_KIND: pIC50

// query pIC50 value for entry `Cc1c(-c2ccnc(C(F)(F)F)c2)ccc2c1CCNC2=O` < 4.00

###

TARGET_OR_TEST_SYSTEM: PARP10cat (Homo sapiens, UniProt Q53GL7)
TEST_DETAILS: Inhibition of PARP10cat-mediated ADP-ribosylation of SRPK2 using NAD+ (100 μM)
Assay type: biochemical
REPORTED_CONDITIONS: ratio of IC50 values, PARP11 over PARP10cat
QUANTITY_KIND: PARP11/PARP10
Write no unit; give the number alone.

[
  {
    "COMPOUND": "Cc1c(-c2ccccc2)ccc2c1CCNC2=O [Compound 14]",
    "TARGET_OR_TEST_SYSTEM": "PARP10cat (Homo sapiens, UniProt Q53GL7)",
    "QUANTITY_KIND": "PARP11/PARP10",
    "TEST_RESULT": 17
  },
  {
    "COMPOUND": "Cc1c(-c2cccnc2)ccc2c1CCNC2=O [Compound 15]",
    "TARGET_OR_TEST_SYSTEM": "PARP10cat (Homo sapiens, UniProt Q53GL7)",
    "QUANTITY_KIND": "PARP11/PARP10",
    "TEST_RESULT": 12
  },
  {
    "COMPOUND": "O=C1NCCc2c(Br)cccc21 [Compound 2]",
    "TARGET_OR_TEST_SYSTEM": "PARP10cat (Homo sapiens, UniProt Q53GL7)",
    "QUANTITY_KIND": "PARP11/PARP10",
    "TEST_RESULT": 0.29
  },
  {
    "COMPOUND": "O=C1NCCc2cc(-c3cccc(F)c3)ccc21 [Compound 9]",
    "TARGET_OR_TEST_SYSTEM": "PARP10cat (Homo sapiens, UniProt Q53GL7)",
    "QUANTITY_KIND": "PARP11/PARP10",
    "TEST_RESULT": 4.4
  },
  {
    "COMPOUND": "O=C1NCCc2c1cccc2-c1ccccc1 [Compound 4]",
    "TARGET_OR_TEST_SYSTEM": "PARP10cat (Homo sapiens, UniProt Q53GL7)",
    "QUANTITY_KIND": "PARP11/PARP10",
    "TEST_RESULT": 0.03
  },
  {
    "COMPOUND": "Cc1c(-c2cnc3[nH]ccc3c2)ccc2c1CCNC2=O [Compound 18]",
    "TARGET_OR_TEST_SYSTEM": "PARP10cat (Homo sapiens, UniProt Q53GL7)",
    "QUANTITY_KIND": "PARP11/PARP10",
    "TEST_RESULT": 17
  }
]

Which PARP11/PARP10 is listed for O=C1NCCc2cc(Br)ccc21 [Compound 5] ? 0.79

// returns reported PARP11/PARP10 for input O=C1NCCc2cc(-c3cccc(Cl)c3)ccc21 [Compound 10] 5.3

Look at this compound and give its reported PARP11/PARP10. Cc1c(-c2ccncc2)ccc2c1CCNC2=O [Compound 16] 15

Using the record for Cc1cccc(-c2ccc3c(c2)CCNC3=O)c1 [Compound 11] , report its PARP11/PARP10. 2.2

###

TARGET_OR_TEST_SYSTEM: PARP10cat (Homo sapiens)
TEST_DETAILS: PARP panel: ADP-ribosylation of SRPK2 using 6-a-NAD+
Type: biochemical
REPORTED_CONDITIONS: 6-a-NAD+; read-out: PARP10cat IC50
QUANTITY_KIND: IC50
State the value with its unit after it.

Name the reported IC50 value associated with the molecule `Cc1c(-c2ccnc(C(F)(F)F)c2)ccc2c1CCNC2=O` 2700 nM

###

TARGET_OR_TEST_SYSTEM: PARP10cat (Homo sapiens, UniProt Q53GL7)
Sequence (Q53GL7 806-1025 limits assumed): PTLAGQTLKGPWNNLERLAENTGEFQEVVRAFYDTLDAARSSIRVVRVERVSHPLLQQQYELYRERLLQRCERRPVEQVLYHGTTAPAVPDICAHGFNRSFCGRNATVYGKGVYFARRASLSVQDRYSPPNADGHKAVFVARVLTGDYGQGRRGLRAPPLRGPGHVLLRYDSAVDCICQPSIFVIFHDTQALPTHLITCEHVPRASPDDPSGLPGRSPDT
TEST_DETAILS: Inhibition of PARP10cat-mediated ADP-ribosylation of SRPK2 using NAD+ (100 μM)
Type: biochemical
REPORTED_CONDITIONS: ADP-ribosylation of SRPK2, NAD+ 100 μM
QUANTITY_KIND: pIC50
Give only the number. pIC50 is defined as minus log10 of concentration in molar units.

Sample records with pIC50:
[
  {
    "STRUCTURE_AS_SMILES": "Cc1c(-c2ccnc(F)c2)ccc2c1CCNC2=O",
    "pIC50": 5.72
  },
  {
    "STRUCTURE_AS_SMILES": "Cc1cccc2c1CCNC2=O",
    "pIC50": 5.07
  },
  {
    "STRUCTURE_AS_SMILES": "Cc1cccc(-c2ccc3c(c2)CCNC3=O)c1",
    "pIC50": 5.68
  }
]

What value of pIC50 on PARP10cat (Homo sapiens, UniProt Q53GL7) does `O=C1NCCc2cc(-c3ccccc3)ccc21` have? 5.60

Lab note: need pIC50 with PARP10cat (Homo sapiens, UniProt Q53GL7) for entry `O=C1NCCc2cc(-c3cccc(F)c3)ccc21` , please look it up. 5.85

Form field: pIC50 recorded for `Cc1c(-c2cccnc2)ccc2c1CCNC2=O` with PARP10cat (Homo sapiens, UniProt Q53GL7) (enter value) 5.60

Reported pIC50 for PARP10cat (Homo sapiens, UniProt Q53GL7), given `Cc1c(-c2ccnc(Cl)c2)ccc2c1CCNC2=O` ? 5.74

###

TARGET_OR_TEST_SYSTEM: PARP10cat (Homo sapiens, UniProt Q53GL7)
TEST_DETAILS: Inhibition of PARP10cat-mediated ADP-ribosylation of SRPK2 using NAD+ (100 μM)
Type: biochemical
REPORTED_CONDITIONS: ADP-ribosylation of SRPK2, NAD+ 100 μM
QUANTITY_KIND: PARP10cat pIC50 ± S.E.M.
// keep it numeric: no unit symbol after the value

A selection of reference data follows.
[
  {
    "STRUCTURE_AS_SMILES": "Cc1c(-c2cnc3[nH]ccc3c2)ccc2c1CCNC2=O",
    "PARP10cat pIC50 ± S.E.M.": 6.15
  },
  {
    "STRUCTURE_AS_SMILES": "Cc1c(-c2ccnc(F)c2)ccc2c1CCNC2=O",
    "PARP10cat pIC50 ± S.E.M.": 5.71
  }
]

State its PARP10cat pIC50 ± S.E.M. on PARP10cat (Homo sapiens, UniProt Q53GL7): `Cc1c(-c2cncc(F)c2)ccc2c1CCNC2=O` 5.66

Report PARP10cat pIC50 ± S.E.M. for `Cc1c(-c2ccnc(C(F)(F)F)c2)ccc2c1CCNC2=O` tested on PARP10cat (Homo sapiens, UniProt Q53GL7). 5.74

Recorded PARP10cat pIC50 ± S.E.M. for `Cc1c(-c2ccnc(Cl)c2)ccc2c1CCNC2=O` with PARP10cat (Homo sapiens, UniProt Q53GL7), please? 5.76

Record `O=C1NCCc2cc(-c3cccc(Cl)c3)ccc21` : what is its PARP10cat pIC50 ± S.E.M. with PARP10cat (Homo sapiens, UniProt Q53GL7)? 5.95

GET /values?readout=PARP10cat pIC50 ± S.E.M.&system=PARP10cat (Homo sapiens, UniProt Q53GL7)&item= `Cc1c(-c2cncc(C(F)(F)F)c2)ccc2c1CCNC2=O` 5.57

Give PARP10cat (Homo sapiens, UniProt Q53GL7) PARP10cat pIC50 ± S.E.M. for `O=C1NCCc2cc(-c3cccc(C(F)(F)F)c3)ccc21` 5.65

Kindly state the measured PARP10cat pIC50 ± S.E.M. obtained for `Cc1ccc2c(c1)CCNC2=O` with PARP10cat (Homo sapiens, UniProt Q53GL7). 4.48

I'm curious: which PARP10cat pIC50 ± S.E.M. was measured for `Cc1c(-c2ccc3[nH]ccc3c2)ccc2c1CCNC2=O` tested on PARP10cat (Homo sapiens, UniProt Q53GL7)? 5.96
